Reference for the values: patent US20140005165A1

Assignment: determine reported pIC50 for the given compounds.
subjectOfTest: human CCR2 (Homo sapiens)
Construct: expressed in transfected cells; host or cells: Ba/F3 cells (membrane preparation)
assayComment: CCR2 Membrane Binding Assay (SPA radio-ligand binding, 125I-rhMCP-1)
settings: membranes from Ba/F3 cells transfected with human CCR2; 0.03 nM 125I-rhMCP-1; 4 h room temperature
pIC50 is a log-scale quantity: -log10 of the concentration expressed in molar.

Form field pIC50, entry `O=C(CNC(=O)[C@H]1[C@@H]2CN([C@H]3CC[C@@H](c4ncccn4)CC3)C[C@@H]21)Nc1cccc(C(F)(F)F)c1` : 8.12

Form field pIC50, entry `COc1ncc([C@H]2CC[C@@H](N3C[C@@H]4[C@H](C3)[C@H]4C(=O)NCC(=O)Nc3cccc(C(F)(F)F)c3)CC2)c(OC)n1` : 8.35

Form field pIC50, entry `COc1ccc([C@H]2CC[C@@H](N3C[C@@H]4[C@H](C3)[C@H]4C(=O)NCC(=O)Nc3cccc(C(F)(F)F)c3)CC2)cc1` : 8.40

Form field pIC50, entry `O=C(CNC(=O)[C@H]1[C@@H]2CN([C@H]3CC[C@@H](c4ccc(-c5ccccc5)cc4)CC3)C[C@@H]21)Nc1cccc(C(F)(F)F)c1` : 8.13

Form field pIC50, entry `O=C(CNC(=O)[C@H]1[C@@H]2CN([C@H]3CC[C@@H](c4ccccc4)OC3)C[C@@H]21)Nc1cccc(C(F)(F)F)c1` : 8.44

Form field pIC50, entry `O=C(CNC(=O)[C@H]1[C@@H]2CN([C@H]3CC[C@@H](c4ccncc4)CC3)C[C@@H]21)Nc1cccc(C(F)(F)F)c1` : 7.96

* * *

subjectOfTest: human CCR2 (Homo sapiens, UniProt P41597)
Construct: expressed in transfected cells; host or cells: Ba/F3 cells (membrane preparation)
Sequence (P41597 whole entry): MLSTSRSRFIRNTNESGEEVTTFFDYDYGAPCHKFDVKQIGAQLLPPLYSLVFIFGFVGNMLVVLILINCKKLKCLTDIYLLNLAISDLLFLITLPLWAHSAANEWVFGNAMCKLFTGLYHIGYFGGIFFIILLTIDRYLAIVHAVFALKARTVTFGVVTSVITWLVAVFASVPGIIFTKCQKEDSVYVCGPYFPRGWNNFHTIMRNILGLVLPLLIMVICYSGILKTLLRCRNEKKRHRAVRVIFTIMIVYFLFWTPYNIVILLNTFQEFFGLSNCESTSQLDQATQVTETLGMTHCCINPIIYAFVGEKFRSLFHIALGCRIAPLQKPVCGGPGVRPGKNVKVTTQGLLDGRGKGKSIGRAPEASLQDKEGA
assayComment: CCR2 Membrane Binding Assay (SPA radio-ligand binding, 125I-rhMCP-1)
settings: membranes from Ba/F3 cells transfected with human CCR2; 0.03 nM 125I-rhMCP-1; class symbols
recordedMetric: IC50

Form field IC50, entry O=C(CNC(=O)[C@H]1[C@@H]2CN(C3CCC(O)CC3)C[C@@H]21)Nc1cccc(C(F)(F)F)c1 (some centres unmarked) : 201 to 700 nM

Form field IC50, entry `O=C([C@H]1[C@@H]2CN([C@H]3CC[C@@H](c4ccccc4)CC3)C[C@@H]21)N1CCN(c2cccc(C(F)(F)F)c2)CC1` : 201 to 700 nM

Form field IC50, entry `O=C(CNC(=O)[C@H]1[C@@H]2CN([C@H]3CC[C@H](c4ccsc4)CC3)C[C@@H]21)Nc1cccc(C(F)(F)F)c1` : 51 to 200 nM

Form field IC50, entry COc1ccc(CC2CCCC(N3C[C@@H]4[C@H](C3)[C@H]4C(=O)NCC(=O)Nc3cccc(C(F)(F)F)c3)C2)cc1 (some centres unmarked) [Compound 144] : 51 to 200 nM

Form field IC50, entry `O=C([C@H]1[C@@H]2CN([C@H]3CC[C@@H](c4ccccc4)CC3)C[C@@H]21)N1CC(Oc2ccc(Cl)c(Cl)c2)C1` : 51 to 200 nM

Form field IC50, entry `CC(C)(C)OC(=O)N[C@H]1CC[C@@H](N2C[C@@H]3[C@H](C2)[C@H]3C(=O)NCC(=O)Nc2cccc(C(F)(F)F)c2)CC1` : 51 to 200 nM

Form field IC50, entry O=C(CNC(=O)[C@H]1[C@@H]2CN(C3CC=C(c4ccc5c(c4)OCO5)CC3)C[C@@H]21)Nc1cccc(C(F)(F)F)c1 (some centres unmarked) : 201 to 700 nM

Form field IC50, entry O=C(CNC(=O)[C@H]1[C@@H]2CN(C3C[C@@H]4CC[C@H]3C4)C[C@@H]21)Nc1cccc(C(F)(F)F)c1 (some centres unmarked) : 51 to 200 nM
